Test system: MCF7 breast
experimental protocol: NCI tumour cell line growth inhibition, 48 h
# Lookup of reported TGI keyed by entry

INSERT INTO results (compound, result) VALUES
  ('CNC(=O)N(CCC#N)CCN(CCN(C(=O)NC)c1ccccc1)C(=O)NC', '> 100 µM');

Asked: Quick one: TGI of COC(=O)C1=NN2c3ccccc3CN([C@@H](C)c3ccccc3)C(=O)[C@@H]2C1 ?
Given back: > 100 µM

Asked: Quick one: TGI of CCCCNc1nc(SC)nc2nc[nH]c12 ?
Given back: > 100 µM

Asked: Which TGI value belongs to C=C1CC(OC)(C(O)C(=O)N[C@H]2OCO[C@H]3C2O[C@H](C[C@@H](CO)OC)C(C)(C)C3OC)O[C@H](C)[C@@H]1C (stereo not given in full) ?
Given back: > 93.2 µM

Asked: Bench note: what TGI did COc1ccc(C2=C(OC(C)=O)c3cccn3-c3ccccc3S2)cc1 show?
Given back: > 10 µM

Asked: Tell me the measured TGI of N#CC1=C(N)Oc2c(sc3c(F)cccc23)C1c1ccc([N+](=O)[O-])cc1 (stereo not given) , please.
Given back: 1.54 µM

Asked: State the recorded TGI for this entry: O=C(c1nsc(Cl)c1Cl)N1CCCCC1
Given back: > 100 µM

Asked: // query TGI value for entry Nc1ccc(-c2ccc(-c3nc4ccccc4[nH]3)cc2)cc1
Given back: > 100 µM

Asked: What value of TGI has been reported for the following compound? C[C@]12CC[C@H]3[C@@H](C[C@@H]4SC(Nc5cccc(F)c5)=N[C@@]45CC(=O)CC[C@]35C)[C@@H]1CCC2=O
Given back: 3.28 µM

Asked: Which TGI is listed for Cc1oc2c(c1C(=O)c1ccccc1)C(=O)c1ccccc1C2=O ?
Given back: 10.6 µM

###

Consider the following compounds and their measured TGI readings.
Tested on: OVCAR-5 ovarian
experimental protocol: NCI tumour cell line growth inhibition, 48 h

Asked: Please provide the recorded TGI for N#Cc1c(N2CCOCC2)ncn(-c2ccccc2)c1=O , tested on OVCAR-5 ovarian.
Given back: > 100 µM

Asked: Fill in the recorded TGI for this compound, with OVCAR-5 ovarian as test system: COC(=O)c1c2c(c(C)[n+]([O-])c1C)C(=O)C(NCc1ccc(F)c(Cl)c1)=CC2=O
Given back: 3.82 µM

Asked: Request body: readout TGI, system OVCAR-5 ovarian, query O=C1c2c(Br)sc(Br)c2[C@H]2NC(=S)O[C@@H]12 . Return the value.
Given back: 35.2 µM

Asked: What TGI appears in the records for this compound with OVCAR-5 ovarian? COc1ccc2[nH]cc(/C=C3\C(=O)Nc4ccccc43)c2c1
Given back: 42 µM

Asked: Query the reported TGI for OVCAR-5 ovarian; item: C(/COc1cccnc1)=N\NC1=NCCN1
Given back: > 100 µM

Asked: Give OVCAR-5 ovarian TGI for c1ccc(C2CC(N3CCOCC3)=Nc3ccccc3N2)cc1 (stereo unspecified)
Given back: > 100 µM

Asked: Reported TGI for OVCAR-5 ovarian, given CC(=O)O[C@H]1CCC2[C@@H]3CCC4C(=O)c5oncc5C[C@]4(C)C3CC[C@@]21C (stereo partly specified) ?
Given back: > 100 µM

###

Each entry below carries its reported TGI.
System: A498 renal
experimental protocol: NCI tumour cell line growth inhibition, 48 h

INSERT INTO measurements (molecule, experimental_system, result) VALUES
  ('Cn1ncc2c(NCCc3ccccc3)nc(Cl)nc21', 'A498 renal', '45.5 µM'),
  ('COc1cccc(/C=N/n2c(-c3ccccc3)n[nH]c2=O)c1', 'A498 renal', '> 100 µM'),
  ('O=C1C=C(Br)C(=O)C(Br)=C1', 'A498 renal', '> 100 µM'),
  ('CCOC(=O)C(=Cc1ccc(Br)cc1)C(=O)OCC', 'A498 renal', '5.14 µM'),
  ('Nc1nc(Nc2ccc(Cl)cc2)sc1C(=O)c1cc2ccccc2oc1=O', 'A498 renal', '93.7 µM'),
  ('CC(C)C1OCC(CO)CO1 (stereo not drawn)', 'A498 renal', '> 100 µM');

Asked: Lab request: please report TGI under test system A498 renal for Nc1nc(Cl)cc(Nc2ccc3c(c2)CCC3)n1
Given back: > 100 µM

Asked: Given the entry Cc1ccc(NC(=O)SCCC(=O)O)cc1NC(=O)SCCC(=O)O , what TGI was observed with A498 renal?
Given back: > 100 µM

Asked: // lookup TGI | system=A498 renal | key= N#Cc1c(NC(=O)CCC(=O)O)ccc2ccccc12
Given back: > 100 µM

Asked: Can you look up TGI on A498 renal for CN1N=C(c2ccncc2)OC1c1ccc(Cl)c(Cl)c1 (stereo not drawn) ?
Given back: > 100 µM

Asked: GET /values?readout=TGI&system=A498 renal&item= C=CCSc1n[nH]c(-c2cccs2)n1
Given back: > 100 µM

###

Test system: HCC-2998 colon
experimental protocol: NCI tumour cell line growth inhibition, 48 h
Listing of entries alongside the reported TGI.

Recorded results for 5 compounds are shown here.
INSERT INTO results (compound, experimental_system, result) VALUES
  ('CC1CC2C3CC(F)C4=CC(=O)C=CC4(C)C3(F)C(O)CC2(C)C1(O)C(=O)CO (centres undefined)', 'HCC-2998 colon', '> 100 µM'),
  ('COC(=O)C(Cc1ccccc1)NS(=O)(=O)c1ccc(-c2c3nc(c(-c4ccc(S(=O)(=O)NC(Cc5ccccc5)C(=O)OC)cc4)c4ccc([nH]4)c(-c4ccc(S(=O)(=O)NC(Cc5ccccc5)C(=O)OC)cc4)c4nc(c(-c5ccc(S(=O)(=O)NC(Cc6ccccc6)C(=O)OC)cc5)c5ccc2[nH]5)C=C4)C=C3)cc1 (centres undefined)', 'HCC-2998 colon', '> 100 µM'),
  ('Nc1nc(Nc2ccc(Cl)cc2)sc1C(=O)c1cc2ccccc2oc1=O', 'HCC-2998 colon', '> 100 µM'),
  ('Cc1ccc2c(c1)NC(=O)C(N=[N+]=[N-])(c1ccccc1)C2=O (centres undefined)', 'HCC-2998 colon', '> 100 µM'),
  ('c1ccc(-c2cc(-c3cc(-c4ccccn4)[nH]n3)n[nH]2)nc1', 'HCC-2998 colon', '83.6 µM');

Asked: Which TGI value belongs to Cc1cc(S(=O)(=O)Nc2nc(N)n(C)n2)c(S)cc1Cl ?
Given back: > 10 µM

Asked: Using the record for CC(C)(C)C1CCC2c3c([nH]c4ccccc34)C3C(=O)N(c4ccc(Br)cc4)C(=O)C3C2C1 (centres undefined) , report its TGI.
Given back: 11.9 µM

Asked: Any idea what its TGI is? The compound is Cc1ccc(N2C(=O)/C(=c3\s/c(=C(/N)O)c(=N)n3-c3ccccc3)SC2=S)cc1
Given back: > 100 µM

Asked: Recorded TGI of COc1cc(/C=C2\NC(=O)N(/C=C3\C(=O)Oc4ccccc4C3=O)C2=O)ccc1O , please.
Given back: > 100 µM

###

Tested on: SR leukemia
experimental protocol: NCI tumour cell line growth inhibition, 48 h; in the data active = GI50 below about 0.43 µM; inactive = the rest
Respond only with the outcome that fits, drawn from 1 = active, 0 = inactive

Solved entries (count: 3):
INSERT INTO assay_data (compound, category) VALUES
  ('O=S(=O)(Nc1ccc(Cl)c(C(F)(F)F)c1)c1ccc(-c2cnc(C3CC3)o2)cc1', 1),
  ('C[C@]12CC[C@@H]3c4ccc(O)cc4CC[C@H]3[C@@H]1CC[C@@H]2NS(=O)(=O)c1cccc(Br)c1', 0),
  ('N#Cc1ccc(-n2cnc(NC(=O)[C@H]3CCN(C#N)C3)c2)cc1', 1);

Asked: Lab log entry: C/C=C(/C)C(=O)OC1C=C(CO)C(=O)C(OC(=O)/C(C)=C\C)C1C(C)C (stereo not given) — outcome as called in the assay?
Given back: 1

Asked: Which outcome did this test record for the compound O=C(Oc1ccc([N+](=O)[O-])cc1)N1CCC(C(O)(c2ccc3c(c2)OCO3)c2ccc3c(c2)OCO3)CC1 ?
Given back: 0

###

Test system: UO-31 renal
experimental protocol: NCI tumour cell line growth inhibition, 48 h
reported property: GI50

In the examples that follow, each entry is paired with its recorded GI50.
INSERT INTO results (compound, experimental_system, result) VALUES
  ('C#C[C@]1(O)CC[C@H]2[C@@H]3CC=C4c5nc(Nc6ccc(OC)cc6OC)sc5CC[C@]4(C)[C@H]3CC[C@@]21C', 'UO-31 renal', '1360 nM'),
  ('Cc1cc(N2CCN(C)CC2)nc(NC2CCCC(Nc3ccnc4cc(Cl)ccc34)C2)n1 (stereo not given)', 'UO-31 renal', '1490 nM'),
  ('Clc1ccc2c(NCCNc3nc(-c4ccccc4)cc(-c4ccccc4)n3)ccnc2c1', 'UO-31 renal', '1540 nM');

Asked: Recorded GI50 of CCOC(=O)c1c(C)c2c(n1C)CSc1cc(S(=O)(=O)c3ccccc3)c(=O)[nH]c1-2 , please.
Given back: 17400 nM

Asked: Find the recorded GI50 belonging to COC(=O)c1c2c(c(C)[n+]([O-])c1C)C(=O)C(NCc1ccc(F)c(Cl)c1)=CC2=O and report it.
Given back: 2110 nM

The measurements presented in this section are drawn from PubChem BioAssay (NCI).
